Each recorded value in this set is attributed to ChEMBL document CHEMBL5608195.

Reported IC50 values for a set of compounds
# Test system: RKO
# TEST DESCRIPTION: Antiproliferative activity against human RKO cells incubated for 24 hrs by MTT assay
# Type: functional, cell-based

Cc1ccc2c(c1)CCN1CCc3c([nH]c4ccc(Cl)cc34)C21C (centres undefined)    6.48 µM
CC12c3ccc(Cl)cc3CCN1CCc1c2[nH]c2ccc(Cl)cc12 (centres undefined)    7.97 µM
Cc1ccc2c(c1)C1(C)c3[nH]c4ccc(Cl)cc4c3CCN1CC2 (centres undefined)    7.28 µM

The value of IC50 measured for the compound CC12c3cc(Cl)ccc3CCN1CCc1c2[nH]c2ccc(Cl)cc12 (centres undefined) turned out to be 6.84 µM
